For each record, write down the corresponding AC50.
- studySystem: Progesterone receptor (Homo sapiens, UniProt P06401); note: assay procedure not described here
- Sequence (P06401 whole entry): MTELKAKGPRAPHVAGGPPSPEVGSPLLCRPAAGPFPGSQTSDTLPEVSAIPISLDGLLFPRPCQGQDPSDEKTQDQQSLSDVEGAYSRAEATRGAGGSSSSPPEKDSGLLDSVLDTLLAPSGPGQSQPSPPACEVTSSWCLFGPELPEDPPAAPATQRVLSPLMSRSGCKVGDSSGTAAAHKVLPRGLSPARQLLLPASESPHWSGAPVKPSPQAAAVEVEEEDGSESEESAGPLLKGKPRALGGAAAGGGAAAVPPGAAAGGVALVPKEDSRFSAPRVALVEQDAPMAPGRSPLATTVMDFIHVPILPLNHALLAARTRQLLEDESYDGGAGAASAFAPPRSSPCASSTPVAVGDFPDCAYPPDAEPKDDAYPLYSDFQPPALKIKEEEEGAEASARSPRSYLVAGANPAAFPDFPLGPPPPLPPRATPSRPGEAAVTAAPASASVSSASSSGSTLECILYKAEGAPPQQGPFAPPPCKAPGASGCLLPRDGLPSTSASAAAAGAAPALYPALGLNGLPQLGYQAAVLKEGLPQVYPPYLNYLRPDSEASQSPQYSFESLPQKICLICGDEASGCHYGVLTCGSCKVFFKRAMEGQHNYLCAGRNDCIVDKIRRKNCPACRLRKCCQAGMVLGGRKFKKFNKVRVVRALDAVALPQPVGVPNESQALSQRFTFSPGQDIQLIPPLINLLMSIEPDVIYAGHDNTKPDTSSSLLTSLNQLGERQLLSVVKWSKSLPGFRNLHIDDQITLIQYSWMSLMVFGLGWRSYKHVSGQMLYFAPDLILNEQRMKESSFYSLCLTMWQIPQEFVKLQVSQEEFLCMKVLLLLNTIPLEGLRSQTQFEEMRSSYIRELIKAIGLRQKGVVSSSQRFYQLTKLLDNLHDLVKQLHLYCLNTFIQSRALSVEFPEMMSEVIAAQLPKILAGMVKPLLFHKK
- Assay type: functional

Would you mind telling me what AC50 value was observed for N[C@@H](C(=O)N[C@@H]1C(=O)N2C(C(=O)O)=C(Cl)CS[C@H]12)c1ccccc1 [CEFACLOR ANHYDROUS] ? > 30 µM

Would you mind telling me what AC50 value was observed for Cc1cccc(C)c1OCC(C)N (stereo not drawn) ? > 30 µM

Would you mind telling me what AC50 value was observed for CCCCCCCCOc1ccccc1C(=O)Nc1ccc(C(=O)OCC[N+](C)(CC)CC)cc1 [OTILONIUM BROMIDE] ? 7 µM

Would you mind telling me what AC50 value was observed for COC(=O)N[C@H](C(=O)N[C@@H](Cc1ccccc1)[C@@H](O)CN(Cc1ccc(-c2ccccn2)cc1)NC(=O)[C@@H](NC(=O)OC)C(C)(C)C)C(C)(C)C ? > 30 µM

Would you mind telling me what AC50 value was observed for CC(C)(C(=O)c1cccnc1)c1cccnc1 ? > 10 µM

Would you mind telling me what AC50 value was observed for CC(C)NCC1CCc2cc(CO)c([N+](=O)[O-])cc2N1 (stereo not drawn) ? > 10 µM

Would you mind telling me what AC50 value was observed for C[C@@H]1O[C@@H]1P(=O)(O)O ? > 30 µM

Would you mind telling me what AC50 value was observed for Nc1ncnc2c1ncn2[C@@H]1O[C@H](COP(=O)(O)O)[C@@H](O)[C@H]1O [ADENOSINE PHOSPHATE] ? > 30 µM

----------
For each record, write down the corresponding AC50.
- studySystem: UniProtKB P08913
- Sequence (P08913 whole entry): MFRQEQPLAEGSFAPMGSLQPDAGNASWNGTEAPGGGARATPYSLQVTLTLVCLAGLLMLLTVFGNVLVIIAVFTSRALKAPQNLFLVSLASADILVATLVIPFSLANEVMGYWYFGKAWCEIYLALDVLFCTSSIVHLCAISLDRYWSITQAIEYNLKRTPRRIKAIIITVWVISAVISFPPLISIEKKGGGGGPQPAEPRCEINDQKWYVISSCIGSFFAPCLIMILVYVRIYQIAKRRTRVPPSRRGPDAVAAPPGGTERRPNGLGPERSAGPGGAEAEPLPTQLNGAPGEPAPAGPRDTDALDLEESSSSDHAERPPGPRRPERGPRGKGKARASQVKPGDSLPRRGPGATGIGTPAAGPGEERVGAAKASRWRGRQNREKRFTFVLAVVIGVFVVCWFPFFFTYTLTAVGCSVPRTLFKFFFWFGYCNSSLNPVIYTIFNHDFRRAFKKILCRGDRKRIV
- Type: functional, cell-based

Would you mind telling me what AC50 value was observed for CC1=CC(=O)c2ccccc2C1=O [MENADIONE] ? > 10 µM

Would you mind telling me what AC50 value was observed for CO/N=C(\C(=O)N[C@@H]1C(=O)N2C(C(=O)OCOC(=O)C(C)(C)C)=C(C)CS[C@H]12)c1csc(N)n1 ? > 30 µM

Would you mind telling me what AC50 value was observed for O=C(O)CCCc1ccccc1 [PHENYLBUTANOIC ACID] ? > 30 µM

Would you mind telling me what AC50 value was observed for CN1CC(=O)N2[C@H](c3ccc4c(c3)OCO4)c3[nH]c4ccccc4c3C[C@@H]2C1=O ? > 10 µM

Would you mind telling me what AC50 value was observed for COc1ccccc1OCC(O)COC(N)=O (centres undefined) [METHOCARBAMOL] ? > 10 µM

Would you mind telling me what AC50 value was observed for CC(Cc1ccccc1)NCCC(c1ccccc1)c1ccccc1 (centres undefined) [PRENYLAMINE] ? > 10 µM

Would you mind telling me what AC50 value was observed for COc1cc2c(cc1OC)C(=O)C(CC1CCN(Cc3ccccc3)CC1)C2 (centres undefined) [DONEPEZIL] ? > 10 µM

Would you mind telling me what AC50 value was observed for O=C(O)CCn1c2c(c3ccccc31)C[C@H](NS(=O)(=O)c1ccc(F)cc1)CC2 [RAMATROBAN] ? > 10 µM

Would you mind telling me what AC50 value was observed for Cc1ccc(C(=O)c2cc(O)c(O)c([N+](=O)[O-])c2)cc1 [TOLCAPONE] ? > 10 µM

----------
For each record, write down the corresponding AC50.

Item: C[C@H]1C[C@@H]2[C@H]([C@@H](O)C[C@@]3(C)[C@H]2CC[C@]3(O)C(=O)CO)[C@@]2(C)C=CC(=O)C=C12 Test system: Kappa-type opioid receptor (Homo sapiens) Read-out: AC50 Value: ? > 10 µM

Item: CC(=O)N(CC(O)CO)c1c(I)c(C(=O)NCC(O)CO)c(I)c(C(=O)NCC(O)CO)c1I (centres undefined) [IOHEXOL] Test system: Kappa-type opioid receptor (Homo sapiens) Read-out: AC50 Value: ? > 10 µM

Item: Nc1ncnc2c1ncn2[C@@H]1O[C@H](COP(=O)(O)O)[C@@H](O)[C@H]1O [ADENOSINE PHOSPHATE] Test system: Kappa-type opioid receptor (Homo sapiens) Read-out: AC50 Value: ? > 30 µM

Item: COc1cc(Nc2c(C#N)cnc3cc(OCCCN4CCN(C)CC4)c(OC)cc23)c(Cl)cc1Cl Test system: Kappa-type opioid receptor (Homo sapiens) Read-out: AC50 Value: ? 10 µM

----------
- studySystem: cGMP-inhibited 3',5'-cyclic phosphodiesterase 3A (Homo sapiens, UniProt Q14432); note: assay procedure not described here
- Sequence (Q14432 whole entry): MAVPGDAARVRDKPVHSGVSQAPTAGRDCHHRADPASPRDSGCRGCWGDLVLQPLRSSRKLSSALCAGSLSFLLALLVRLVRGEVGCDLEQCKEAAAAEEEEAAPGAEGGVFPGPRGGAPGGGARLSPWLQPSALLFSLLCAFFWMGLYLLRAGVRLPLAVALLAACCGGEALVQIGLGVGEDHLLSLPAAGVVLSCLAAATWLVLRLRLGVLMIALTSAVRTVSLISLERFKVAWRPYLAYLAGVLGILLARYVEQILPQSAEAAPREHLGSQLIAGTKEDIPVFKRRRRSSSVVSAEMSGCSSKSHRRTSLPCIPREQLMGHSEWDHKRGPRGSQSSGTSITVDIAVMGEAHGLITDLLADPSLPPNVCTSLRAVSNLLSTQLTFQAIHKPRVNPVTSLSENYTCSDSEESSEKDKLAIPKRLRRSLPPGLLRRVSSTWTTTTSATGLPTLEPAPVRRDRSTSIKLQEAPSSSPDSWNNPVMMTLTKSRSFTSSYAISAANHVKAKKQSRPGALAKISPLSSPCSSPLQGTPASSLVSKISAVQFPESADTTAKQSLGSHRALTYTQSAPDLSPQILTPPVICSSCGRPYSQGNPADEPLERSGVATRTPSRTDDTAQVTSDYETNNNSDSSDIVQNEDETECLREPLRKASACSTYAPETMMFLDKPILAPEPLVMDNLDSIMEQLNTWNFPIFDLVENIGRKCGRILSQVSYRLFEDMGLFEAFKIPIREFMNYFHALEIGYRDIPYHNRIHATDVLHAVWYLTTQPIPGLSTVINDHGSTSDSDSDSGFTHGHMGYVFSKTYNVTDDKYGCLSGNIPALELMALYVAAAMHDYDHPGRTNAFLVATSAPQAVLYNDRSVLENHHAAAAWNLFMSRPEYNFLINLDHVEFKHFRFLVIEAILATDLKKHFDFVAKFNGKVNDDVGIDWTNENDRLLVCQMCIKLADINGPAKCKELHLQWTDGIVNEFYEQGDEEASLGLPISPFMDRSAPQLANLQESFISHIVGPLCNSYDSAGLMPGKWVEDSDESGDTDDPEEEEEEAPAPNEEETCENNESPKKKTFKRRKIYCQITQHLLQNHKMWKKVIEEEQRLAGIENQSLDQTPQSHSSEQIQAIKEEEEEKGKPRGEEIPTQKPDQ
- Format: functional
observedProperty: AC50

Would you mind telling me what AC50 value was observed for CC(=O)Oc1c(C)cc(OCC(O)CNC(C)C)c(C)c1C (configuration not stated) ? > 30 µM

Would you mind telling me what AC50 value was observed for C[N+](C)(C)CCCCCCCCCC[N+](C)(C)C ? > 30 µM

Would you mind telling me what AC50 value was observed for Sc1ncnc2nc[nH]c12 [MERCAPTOPURINE ANHYDROUS] ? > 30 µM

Would you mind telling me what AC50 value was observed for CCO/N=C(\C(=O)N[C@@H]1C(=O)N2C(C(=O)[O-])=C(Sc3nc(-c4cc[n+](C)cc4)cs3)CS[C@H]12)c1nsc(N)n1 ? > 30 µM

Would you mind telling me what AC50 value was observed for CCOC(=O)N[C@@H]1CC[C@@H]2[C@@H](C1)C[C@H]1C(=O)O[C@H](C)[C@H]1[C@H]2/C=C/c1ccc(-c2cccc(F)c2)cn1 ? > 30 µM

Would you mind telling me what AC50 value was observed for CCC(=O)O[C@H]1[C@H](O[C@@H]2[C@@H](C)[C@H](O[C@H]3C[C@@](C)(OC)[C@@H](O)[C@H](C)O3)[C@@H](C)C(=O)O[C@H](CC)[C@@](C)(O)[C@H](O)[C@@H](C)C(=O)[C@H](C)C[C@@]2(C)O)O[C@H](C)C[C@@H]1N(C)C [ERYTHROMYCIN PROPIONATE] ? > 30 µM

Would you mind telling me what AC50 value was observed for Cn1cc[nH]c1=S ? > 30 µM

Would you mind telling me what AC50 value was observed for Oc1ncnc2[nH]ncc12 ? > 30 µM

Would you mind telling me what AC50 value was observed for CC(C)OC(=O)[C@H](C)N[P@](=O)(OC[C@H]1O[C@@H](n2ccc(=O)[nH]c2=O)[C@](C)(F)[C@@H]1O)Oc1ccccc1 ? > 30 µM

Would you mind telling me what AC50 value was observed for C[C@@H]1C[C@H]2[C@@H]3CCC4=CC(=O)C=C[C@]4(C)[C@@]3(F)[C@@H](O)C[C@]2(C)[C@H]1C(=O)CO ? > 30 µM

Would you mind telling me what AC50 value was observed for CO[C@@]12[C@H](COC(N)=O)C3=C(C(=O)C(C)=C(N)C3=O)N1C[C@@H]1N[C@@H]12 ? > 30 µM

Would you mind telling me what AC50 value was observed for Cc1cc(O)cc(C)c1Cl ? > 30 µM

Would you mind telling me what AC50 value was observed for CCO[C@@H](Cc1ccc(OCCn2c(C)ccc2-c2ccc(SC)cc2)cc1)C(=O)O ? > 30 µM

Would you mind telling me what AC50 value was observed for CN1CCN(C(c2ccccc2)c2ccccc2)CC1 ? > 30 µM

Would you mind telling me what AC50 value was observed for O=C1NCC2(CCN(CCc3ccccc3)CC2)O1 [FENSPIRIDE] ? > 30 µM

Would you mind telling me what AC50 value was observed for O=C1c2c(O)c(=O)ccn2N([C@@H]2c3ccccc3SCc3c2ccc(F)c3F)[C@@H]2COCCN12 ? > 30 µM

Would you mind telling me what AC50 value was observed for Nc1nc(N)c2nc(-c3ccccc3)c(N)nc2n1 ? > 30 µM

----------
Here we list compounds with their recorded AC50 when tested on Sodium-dependent dopamine transporter (Homo sapiens, UniProt Q01959). Note: assay procedure not described here.
Sequence (Q01959 whole entry): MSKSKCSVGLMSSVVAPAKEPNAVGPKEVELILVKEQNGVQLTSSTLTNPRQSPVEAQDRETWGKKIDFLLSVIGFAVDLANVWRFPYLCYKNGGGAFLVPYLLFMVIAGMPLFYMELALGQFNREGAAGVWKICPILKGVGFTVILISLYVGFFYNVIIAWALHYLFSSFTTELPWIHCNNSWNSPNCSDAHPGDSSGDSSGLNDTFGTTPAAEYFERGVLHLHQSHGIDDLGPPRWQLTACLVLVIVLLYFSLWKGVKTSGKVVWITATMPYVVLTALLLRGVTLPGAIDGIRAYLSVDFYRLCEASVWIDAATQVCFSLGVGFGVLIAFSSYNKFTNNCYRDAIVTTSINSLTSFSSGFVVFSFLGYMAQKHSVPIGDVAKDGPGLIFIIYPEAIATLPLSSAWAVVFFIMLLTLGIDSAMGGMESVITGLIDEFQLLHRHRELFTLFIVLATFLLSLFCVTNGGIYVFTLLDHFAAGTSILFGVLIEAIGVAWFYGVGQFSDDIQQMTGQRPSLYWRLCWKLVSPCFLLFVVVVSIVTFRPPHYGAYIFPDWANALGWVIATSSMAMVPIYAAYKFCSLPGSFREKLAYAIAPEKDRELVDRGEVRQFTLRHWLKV

Would you mind telling me what AC50 value was observed for CC(=O)OCC(=O)[C@@]12OC3(CCCC3)O[C@@H]1C[C@H]1[C@@H]3CCC4=CC(=O)C=C[C@]4(C)[C@@]3(F)[C@@H](O)C[C@@]12C [AMCINONIDE] ? > 10 µM

Would you mind telling me what AC50 value was observed for COc1c(C)c2c(c(O)c1C/C=C(\C)CCC(=O)OCCN1CCOCC1)C(=O)OC2 [MYCOPHENOLATE MOFETIL] ? > 30 µM

Would you mind telling me what AC50 value was observed for CN(C)CCCN1c2ccccc2Sc2ccccc21 ? > 10 µM

Would you mind telling me what AC50 value was observed for C#CCN(C)[C@H](C)Cc1ccccc1 ? > 10 µM

Would you mind telling me what AC50 value was observed for CN1CCc2cccc3c2[C@H]1Cc1ccc(O)c(O)c1-3 ? > 30 µM
